The compounds listed here are annotated with their Ratio.
Species: Rattus norvegicus
Assay: Relative affinities for rat Adenosine A1 and Adenosine A2B receptors
When you answer, write just the number.

Consider the reported Ratio for these compounds:
1. CCCn1c(=O)[nH]c2[nH]cnc2c1=O; 1.8
2. Cn1c(=O)c2c(ncn2CCCl)n(C)c1=O; 2.8
3. Cn1c(=O)c2c(ncn2CCCCCl)n(C)c1=O; 0.95
4. CCCn1c(=O)c2[nH]c(-c3ccc(OCC(=O)Nc4ccc(C#N)cc4)cc3)nc2n(CCC)c1=O; 1.3

Given the compound CCCn1c(=O)c2c(nc(-c3ccccc3)n2CCCl)n(CCC)c1=O , what is its reported Ratio?
0.49

----------
Species on record: Rattus norvegicus
Test: Relative affinities for rat Adenosine A2A and Adenosine A2B receptors
Lab note: anything with Ratio at or over 2 counts as TRUE; the rest go in FALSE.

1. C#CCn1c(=O)c2[nH]cnc2n(C)c1=O; TRUE

Please indicate if the recorded Ratio for CCCn1c(=O)c2[nH]c(-c3ccc(OCC(=O)Nc4ccc(C#N)cc4)cc3)nc2n(CCC)c1=O meets or exceeds 2.
TRUE

Would you say C=CCn1c(=O)c2c(nc(-c3ccccc3)n2CCCl)n(C)c1=O shows Ratio at minimum 2?
TRUE

Threshold query (Ratio >= 2) on Cn1c(=O)c2c(ncn2CCCCCl)n(C)c1=O
FALSE

Does Ratio meet or surpass 2 for Cn1c(=O)n(CCc2ccccc2)c(=O)c2[nH]cnc21 ?
TRUE

Confirm if Ratio reported for the compound CCCn1c(=O)[nH]c2[nH]cnc2c1=O is 2 or above.
TRUE

----------
Target: Adenosine receptor A2b (Homo sapiens)
Each entry below carries its recorded log10(Ki).
Field: value | Transform: log10 | Quantity: Ki | Unit: nM

1) CCCn1c(=O)c2nc(-c3cc(O)c(OC)c(O)c3)[nH]c2n(CCC)c1=O; 1.77
2) Cn1c(=O)n(CCCc2ccccc2)c(=O)c2[nH]cnc21; 3.37
3) O=c1[nH]c2nc[nH]c2c(=O)n1CCc1ccccc1; 2.61
4) C=CCn1c(=O)c2[nH]c(-c3ccccc3)nc2n(C)c1=O; 1.57
5) C=CCn1c(=O)c2c(nc(-c3ccccc3)n2C)n(C)c1=O; 4.06
6) CCCn1c(=O)c2nc(-c3c(F)cccc3F)[nH]c2n(CCC)c1=O; 2.49
7) Cn1c(=O)n(Cc2ccccc2)c(=O)c2[nH]cnc21; 4.01
8) CCCn1c(=O)c2[nH]c(-c3ccc(OC)cc3O)nc2n(CCC)c1=O; 1.67

Dear colleague, I am looking for the recorded log10(Ki) of the following compound: Cn1c(=O)c2[nH]c(-c3ccccc3)nc2n(C)c1=O
2.62

# lookup: log10(Ki) of CCn1c(=O)c2nc[nH]c2n(CC)c1=O
3.25

----------
Sequence of the target: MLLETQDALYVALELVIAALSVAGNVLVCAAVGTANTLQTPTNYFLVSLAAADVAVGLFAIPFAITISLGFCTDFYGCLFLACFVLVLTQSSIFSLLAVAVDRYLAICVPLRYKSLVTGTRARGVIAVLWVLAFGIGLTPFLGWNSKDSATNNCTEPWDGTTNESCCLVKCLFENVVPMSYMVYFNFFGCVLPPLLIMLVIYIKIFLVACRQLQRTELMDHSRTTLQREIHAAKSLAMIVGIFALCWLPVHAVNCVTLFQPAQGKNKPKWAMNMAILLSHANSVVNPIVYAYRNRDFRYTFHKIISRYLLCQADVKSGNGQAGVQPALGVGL
Quantity: pKi
Please note pKi is a logarithmic value: minus log10 of concentration in mol/L. Answer with that number alone.

The cases that follow already have their pKi on record.
1. O=c1[nH]c2nc[nH]c2c(=O)n1C1CCCC1; 6.02
2. C#CCn1c(=O)c2c(ncn2C)n(C)c1=O; 5.38
3. CC(=O)CCCCn1c(=O)c2c(ncn2C)n(C)c1=O; 5.29

Below: the item to evaluate.
Returns the measured pKi for the input compound. Input: Cn1c(=O)c2[nH]c(-c3ccc([N+](=O)[O-])cc3)nc2n(C)c1=O
5.16

----------
Species: Rattus norvegicus
Assay: Relative affinities for rat Adenosine A2A and Adenosine A2B receptors
Quantity: Ratio

Please review the following examples before continuing.
1. Cn1c(=O)n(CCCc2ccccc2)c(=O)c2[nH]cnc21; > 10
2. Cn1c(=O)n(Cc2ccccc2)c(=O)c2[nH]cnc21; 0.31

I would be grateful if you could share the reported Ratio for Cn1c(=O)c2c(ncn2CCCCl)n(C)c1=O .
> 10
